# systemUnderTest: human CYP3A4 (Homo sapiens, UniProt P08684, S18F)
# Assay type: in vitro ADME
# measurementConditions: NFO activity; without pre-incubation
assayReadout: IC50 (µM)
Could you give me the number in µM? Just the number is fine.

Looking for the measured IC50 of Cc1c(O)c(C)c2c(c1O)C(=O)[C@H](Cc1ccc3c(c1)OCO3)CO2 [Methylophiopogonanone A, methylophiopogonanone A] , can you help?
36.5

###

# System: nifedipine oxidation (NFO) activities in rat hepatic microsomes
# Format: in vitro ADME
# measurementConditions: read-out: IC50, NFO activity, Liver; ingredient; 10-min NADPH-fortified pre-incubation
pIC50: −log10 of the molar value.
assayReadout: pIC50

Looking for the measured pIC50 of "CC(C)=CCC[C@](C)(O)[C@H]1CC[C@]2(C)[C@@H]1[C@H](O)C[C@@H]1[C@@]3(C)CC[C@H](O)C(C)(C)[C@@H]3[C@@H](O)C[C@]12C" , can you help?
< 4.00

Looking for the measured pIC50 of "C[C@@H]1CC[C@@]2(OC1)O[C@H]1C[C@H]3[C@@H]4CC=C5C[C@@H](O)C[C@@H](O[C@@H]6O[C@H](C)[C@H](O)[C@H](O[C@@H]7OC[C@@H](O)[C@H](O)[C@H]7O)[C@H]6O[C@@H]6O[C@@H](C)[C@H](O)[C@@H](O)[C@H]6O)[C@]5(C)[C@H]4CC[C@]3(C)[C@H]1[C@@H]2C" , can you help?
< 4.00

Looking for the measured pIC50 of "Cc1c(O)c(C)c2c(c1O)C(=O)[C@H](Cc1ccc3c(c1)OCO3)CO2" , can you help?
4.77

Data provenance: paper PMC9931008
